measured.target: T1, transferrin (human, UniProt P02787 20-698)
T1 construct: also called TRF; pooled human transferrin (Sigma)
T1 sequence (P02787 20-698 limits assumed): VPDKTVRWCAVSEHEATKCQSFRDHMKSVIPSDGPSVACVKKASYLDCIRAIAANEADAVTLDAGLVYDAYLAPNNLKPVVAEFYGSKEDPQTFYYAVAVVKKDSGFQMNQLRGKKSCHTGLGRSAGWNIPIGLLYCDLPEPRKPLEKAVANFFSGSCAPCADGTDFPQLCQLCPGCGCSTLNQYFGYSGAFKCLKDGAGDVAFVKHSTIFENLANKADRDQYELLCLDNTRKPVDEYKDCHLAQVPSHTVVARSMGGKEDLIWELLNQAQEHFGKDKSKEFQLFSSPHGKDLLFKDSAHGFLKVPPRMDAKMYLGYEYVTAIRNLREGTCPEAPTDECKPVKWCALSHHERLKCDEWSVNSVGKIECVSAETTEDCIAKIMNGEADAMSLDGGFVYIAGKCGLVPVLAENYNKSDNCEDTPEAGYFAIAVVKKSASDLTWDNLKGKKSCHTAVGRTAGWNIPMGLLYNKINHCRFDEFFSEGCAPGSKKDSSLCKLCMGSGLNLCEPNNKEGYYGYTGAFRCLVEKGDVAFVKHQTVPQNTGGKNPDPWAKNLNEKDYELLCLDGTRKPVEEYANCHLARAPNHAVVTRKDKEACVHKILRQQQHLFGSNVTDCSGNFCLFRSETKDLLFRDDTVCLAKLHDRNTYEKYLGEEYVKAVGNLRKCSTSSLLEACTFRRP
test.name: SPR (Biacore T100), transferrin immobilised (9758 RU), steady state affinity fit
pKd: −log10 of the molar value.
Entries and their pKd
observed.property: pKd

[[record]]
binder = "GHKVVPQRQIRHAYNRYGSC (Clone from mRNA display on a doped TRF26 library; synthesised and HPLC purified) [TBPL005]"
number = 3.82

[[record]]
binder = "GHKVVPQRQMRHAYNRNGSC (Clone from mRNA display on a doped TRF26 library) [TBPL025]"
number = 3.82

[[record]]
binder = "AHKVVPQRQMRHAYSRYGSC (Clone from mRNA display on a doped TRF26 library; also called TBPMO23) [TBPM023]"
number = 4.94

